- experimental protocol: NCI Yeast Anticancer Drug Screen. Data for the sgs1 mgt1 strain (AID 161);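 note: 0% = growth of cultures given vehicle only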
- protocol conditions: S. cerevisiae sgs1 mgt1 strain, at 50.0 µM, active compounds read high
This is part of a sample that, as a whole, favours compounds with a hit. Of some 79,000 tested, about 15% had one in any assay.
growth inhibition values, listed per item
Quick reminder: number only, in %, skip the unit.

{"molecule": "COC(=O)C(C(=O)C(=O)Nc1nc2ccc(OC)cc2s1)c1cnc2ccccc2n1 (stereo not drawn)", "quantity name": "growth inhibition", "meas value": -45}
{"molecule": "CC1=NN(c2cc(S(=O)(=O)O)ccc2Cl)C(=O)C1N=Nc1ccccc1 (stereo not drawn)", "quantity name": "growth inhibition", "meas value": -30.1}
{"molecule": "O=C(O)COc1ccccc1/C=C1/SC(=S)N(c2ccccc2)C1=O", "quantity name": "growth inhibition", "meas value": -7.25}

Which growth inhibition value is on record for CCOC(=O)NC(C(=O)OCC)(N1CCN(c2cc3c(cc2F)c(=O)c(C(=O)O)cn3CC)CC1)C(F)(F)F (stereo not drawn) ? -11.1

Now the molecule N#CN(Cc1ccccc1)Cc1ccccc1 7.75

How about this molecule: CCCNC1=C(C(=O)OCC)C(=O)CO1 3.55
